Target: K-Ras G12S (Homo sapiens, UniProt P01116, G12S)
Sequence (P01116 whole entry G12S): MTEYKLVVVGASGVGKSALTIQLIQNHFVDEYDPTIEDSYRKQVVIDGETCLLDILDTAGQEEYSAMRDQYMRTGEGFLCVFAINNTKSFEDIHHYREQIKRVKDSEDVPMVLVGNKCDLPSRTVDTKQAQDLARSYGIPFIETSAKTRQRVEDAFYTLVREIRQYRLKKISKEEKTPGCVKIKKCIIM
Experiment: K-Ras G12S cross-linking assay (comparable procedure, conjugate formation, TOF mass spectrometry)
Assay type: binding
Conditions: Table 5, percent covalently modified K-Ras by MS
observable: G12S x-linking (%)

Would you please look over these solved cases?
Cc1ccnc(C(C)C)c1-n1c(=O)nc(N2CCC(CN=C=NCc3ccccc3)CC2)c2cc(F)c(-c3ccccc3F)nc21 | + (0 < x ≤ 10)
CCCN=C=NCC1CCN(c2nc(=O)n(-c3c(C)ccnc3C(C)C)c3nc(-c4ccccc4F)c(F)cc23)CC1 | ++ (10 < x ≤ 100)
COCCN=C=NCC1CCN(c2nc(=O)n(-c3c(C)ccnc3C(C)C)c3nc(-c4ccccc4F)c(F)cc23)CC1 | ++ (10 < x ≤ 100)
COc1ccccc1CN=C=NC1CCN(c2nc(OC[C@@H]3CCCN3C)nc3c2CCN(c2cccc4cccc(C)c24)C3)CC1 | + (0 < x ≤ 10)
COCCN=C=N[C@H]1C[C@H](Nc2nc(OC[C@@H]3CCCN3C)nc3c2CCN(c2cccc4cccc(C)c24)C3)C1 | ++ (10 < x ≤ 100)

Entry Cc1cccc2cccc(N3CCc4c(nc(OC[C@@H]5CCCN5C)nc4N4CCC(N=C=NCCCn5ccnc5)CC4)C3)c12 — recorded G12S x-linking (%) = ++ (10 < x ≤ 100)

Entry Cc1cccc2cccc(N3CCc4c(nc(OC[C@@H]5CCCN5C)nc4N4CCC(N=C=NCCCN(C)c5ccccn5)CC4)C3)c12 — recorded G12S x-linking (%) = + (0 < x ≤ 10)

Entry Cc1cccc2cccc(N3CCc4c(nc(OC[C@@H]5CCCN5C)nc4N4CCN(C(=O)[C@H]5CN5)[C@@H](CC#N)C4)C3)c12 — recorded G12S x-linking (%) = + (0 < x ≤ 10)

Entry CSCCCN=C=NC1CCN(c2nc(OC[C@@H]3CCCN3C)nc3c2CCN(c2cccc4cccc(C)c24)C3)CC1 — recorded G12S x-linking (%) = + (0 < x ≤ 10)

Values were extracted from patent US20230100838A1.
